Test system: PC-14
Assay: relative viability (nuclei count vs DMSO), 5 days (fraction); higher = more cells survive
Conditions: first compound 2.53 µM
Rule: measured relative viability below 0.6 gets yes; anything equal to or greater than 0.6 gets no.

{"columns": ["compound", "class label"],
 "data": [
  ["COc1nc(C)cnc1NS(=O)(=O)c1cccnc1-c1ccc(-c2nnco2)cc1 [Zibotentan] + CS(=O)(=O)CCNCc1ccc(-c2ccc3ncnc(Nc4ccc(OCc5cccc(F)c5)c(Cl)c4)c3c2)o1 [Lapatinib] (partner 2 µM)", "yes"],
  ["O=c1cc(-c2cccc3c2Sc2ccccc2S3)oc(N2CCOCC2)c1 + O=C(c1cc(Cc2n[nH]c(=O)c3ccccc23)ccc1F)N1CCN(C(=O)C2CC2)CC1 [Olaparib] (partner 8 µM)", "yes"],
  ["COc1nc(C)cnc1NS(=O)(=O)c1cccnc1-c1ccc(-c2nnco2)cc1 [Zibotentan] + COc1cc2c(Oc3ccc(NC(=O)C4(C(=O)Nc5ccc(F)cc5)CC4)cc3F)ccnc2cc1OCCCN1CCOCC1 [Foretinib] (partner 0.25 µM)", "no"]
]}

[ask] Dear reviewer, please state whether O=c1cc(-c2cccc3c2Sc2ccccc2S3)oc(N2CCOCC2)c1 + O=C(CCCCCCC(=O)Nc1ccccc1)NO [Vorinostat] (partner 1 µM) has relative viability strictly beneath 0.6.
[reply] no

[ask] Next up: COc1nc(C)cnc1NS(=O)(=O)c1cccnc1-c1ccc(-c2nnco2)cc1 [Zibotentan] + Nc1nc2[nH]cc(CCc3ccc(C(=O)N[C@@H](CCC(=O)O)C(=O)O)cc3)c2c(=O)[nH]1 [Pemetrexed] (partner 0.2 µM)
[reply] yes

[ask] Next up: O=c1cc(-c2cccc3c2Sc2ccccc2S3)oc(N2CCOCC2)c1 + COc1cc2c(Oc3ccc(NC(=O)C4(C(=O)Nc5ccc(F)cc5)CC4)cc3F)ccnc2cc1OCCCN1CCOCC1 [Foretinib] (partner 0.25 µM)
[reply] no

====

Tested on: H3255
Test: relative viability (nuclei count vs DMSO), 5 days (fraction); higher = more cells survive
Settings: first compound 2.53 µM
Rule: measured relative viability below 0.7 gets label 1; anything equal to or greater than 0.7 gets label 0.

Below are worked cases with known answers.
{"columns": ["compound", "class label"],
 "data": [
  ["O=c1cc(-c2cccc3c2Sc2ccccc2S3)oc(N2CCOCC2)c1 + Nc1ncn([C@H]2C[C@H](O)[C@@H](CO)O2)c(=O)n1 [Decitabine] (partner 2 µM)", "label 1"],
  ["COc1nc(C)cnc1NS(=O)(=O)c1cccnc1-c1ccc(-c2nnco2)cc1 [Zibotentan] + CS(=O)(=O)N1CCN(Cc2cc3nc(-c4cccc5[nH]ncc45)nc(N4CCOCC4)c3s2)CC1 [Pictilisib] (partner 1 µM)", "label 1"],
  ["O=c1cc(-c2cccc3c2Sc2ccccc2S3)oc(N2CCOCC2)c1 + C[C@@H](Oc1cc(-c2cnn(C3CCNCC3)c2)cnc1N)c1c(Cl)ccc(F)c1Cl [Crizotinib] (partner 1 µM)", "label 0"],
  ["COc1nc(C)cnc1NS(=O)(=O)c1cccnc1-c1ccc(-c2nnco2)cc1 [Zibotentan] + Nc1ncn([C@H]2C[C@H](O)[C@@H](CO)O2)c(=O)n1 [Decitabine] (partner 2 µM)", "label 1"]
]}

From here, focus on the item given below.
[ask] Dear reviewer, please state whether COc1nc(C)cnc1NS(=O)(=O)c1cccnc1-c1ccc(-c2nnco2)cc1 [Zibotentan] + CC(C)C[C@H](NC(=O)[C@H](Cc1ccccc1)NC(=O)c1cnccn1)B(O)O [Bortezomib] (partner 0.002 µM) has relative viability strictly beneath 0.7.
[reply] label 0
